- TARGET OR TEST SYSTEM: T1, human eukaryotic translation initiation factor 4E (eIF4E), full-length (human, UniProt P06730 2-217)
- T1 construct: mature; For SPR it was amine-coupled to a CM5 chip with m7GTP present in a 2:1 ratio. 'mature' is used here for full length; also called full length eIF4E
- T1 sequence (P06730 2-217): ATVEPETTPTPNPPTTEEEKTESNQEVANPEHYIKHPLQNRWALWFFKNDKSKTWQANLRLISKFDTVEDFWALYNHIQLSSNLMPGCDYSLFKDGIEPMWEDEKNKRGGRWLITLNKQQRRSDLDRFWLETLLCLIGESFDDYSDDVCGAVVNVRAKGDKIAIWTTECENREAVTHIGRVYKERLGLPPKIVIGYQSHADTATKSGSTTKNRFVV
- ASSAY COMMENT: competitive fluorescence anisotropy (FP), displacement of FAM tracer from eIF4E, apparent Kd
Non-standard residues stand in square brackets, D forms with d. Aib = CC(C)(N)C(=O)O
OBSERVABLE: pKd
Here pKd is given on a logarithmic scale as minus log10 of the concentration in mol/L.

Consider the following illustrative entries.
{"BINDER": "Ac-KKRYSR[Aib]FLL[Aib]F-NH2 (SMILES CC(=O)N[C@@H](CCCCN)C(=O)N[C@@H](CCCCN)C(=O)N[C@@H](CCCNC(=N)N)C(=O)N[C@@H](Cc1ccc(O)cc1)C(=O)N[C@@H](CO)C(=O)N[C@@H](CCCNC(=N)N)C(=O)NC(C)(C)C(=O)N[C@@H](Cc1ccccc1)C(=O)N[C@@H](CC(C)C)C(=O)N[C@@H](CC(C)C)C(=O)NC(C)(C)C(=O)N[C@@H](Cc1ccccc1)C(N)=O, Printed KKRYSRXFLLXF, X = AIB; also called diAIB derivative of sTIP-01) [TIP-01]", "NUMERIC READOUT": 7.28}
{"BINDER": "Ac-KKRYSR[Aib]ALL[Aib]F-NH2 (SMILES CC(=O)N[C@@H](CCCCN)C(=O)N[C@@H](CCCCN)C(=O)N[C@@H](CCCNC(=N)N)C(=O)N[C@@H](Cc1ccc(O)cc1)C(=O)N[C@@H](CO)C(=O)N[C@@H](CCCNC(=N)N)C(=O)NC(C)(C)C(=O)N[C@@H](C)C(=O)N[C@@H](CC(C)C)C(=O)N[C@@H](CC(C)C)C(=O)NC(C)(C)C(=O)N[C@@H](Cc1ccccc1)C(N)=O, Printed KKRYSRXALLXF, X = AIB) [TIP-01^F8A]", "NUMERIC READOUT": 6.81}
{"BINDER": "Ac-KKRYSR[Aib]QLL[Aib]L-NH2 (Printed KKRYSRXQLLXL, X = AIB; also called AIB derivative of sTIP-04) [TIP-04]", "NUMERIC READOUT": 7.22}

Query binder follows.
[in] # pKd lookup, item Ac-KKRYSREFLLGF-NH2 (also called eIF4G1^D5S; linear template peptide) [eIF4G^D5S]
[out] 6.71

Measured values drawn from patent US20160046672A1 for this set.
